Quick reference for phosphorylation enrichment among some sequences
experimental-system: Fyn (UniProt P06241)
Sequence (P06241 whole entry, looked up): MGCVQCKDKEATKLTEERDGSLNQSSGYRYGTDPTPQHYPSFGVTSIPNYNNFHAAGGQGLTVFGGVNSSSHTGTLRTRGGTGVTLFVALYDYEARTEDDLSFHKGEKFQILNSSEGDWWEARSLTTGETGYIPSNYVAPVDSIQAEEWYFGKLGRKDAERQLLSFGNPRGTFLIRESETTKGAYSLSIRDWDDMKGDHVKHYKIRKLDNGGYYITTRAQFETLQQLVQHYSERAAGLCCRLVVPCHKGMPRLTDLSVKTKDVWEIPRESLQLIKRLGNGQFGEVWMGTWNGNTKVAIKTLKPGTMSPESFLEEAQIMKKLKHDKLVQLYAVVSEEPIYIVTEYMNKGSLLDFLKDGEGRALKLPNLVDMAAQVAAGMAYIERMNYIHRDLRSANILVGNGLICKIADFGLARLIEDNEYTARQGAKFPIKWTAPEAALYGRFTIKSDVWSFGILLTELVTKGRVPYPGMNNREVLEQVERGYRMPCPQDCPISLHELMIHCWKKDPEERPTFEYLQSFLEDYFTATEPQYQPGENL
protocol: phosphorylation enrichment, bacterial display (enrichment ratio); higher = better substrate or ligand; peptides without Tyr show the background
Give your answer as a number; write no unit.

Study these solved cases before continuing.
Fyn (UniProt P06241) / phosphorylation enrichment / ALERPYTSKHS [NANS_Y71] : value?
0.406

Can you handle NSNSDYVDVLP [SH2D1B_Y127] next?
0.628

Next up: GLRYGYGGLGG [KRTAP20-2_Y15_V17G]
0.349

Repeat with EKDSNYCLCRT [ASIC2_Y357]
0.569

Now this one: EVVGKYSVHNA [MLH1_Y183_R182K]
0.428

Repeat with RGVTRYIYNRE [HLA-DQB1_Y62_Y58G]
0.96

Others:
Reported phosphorylation enrichment for Fyn (UniProt P06241), given RNDRVYQPLRD [CD3D_Y149_Q147R] ?
0.675

Then this sequence: SWKRRYFLLRA [APBB1IP_Y331]
0.564

Continue with KRGVSYILKLA [SERPINB1_Y84_A82V]
0.426

Can you handle EFISEHCGEII [EZH2_Y641_Y641H] next?
0.639

Check FQLENCCNGGG [INS_Y108_Y108C_YF] too.
0.445

----------
experimental-system: FGFR1 (UniProt P11362)
Sequence (P11362 whole entry, looked up): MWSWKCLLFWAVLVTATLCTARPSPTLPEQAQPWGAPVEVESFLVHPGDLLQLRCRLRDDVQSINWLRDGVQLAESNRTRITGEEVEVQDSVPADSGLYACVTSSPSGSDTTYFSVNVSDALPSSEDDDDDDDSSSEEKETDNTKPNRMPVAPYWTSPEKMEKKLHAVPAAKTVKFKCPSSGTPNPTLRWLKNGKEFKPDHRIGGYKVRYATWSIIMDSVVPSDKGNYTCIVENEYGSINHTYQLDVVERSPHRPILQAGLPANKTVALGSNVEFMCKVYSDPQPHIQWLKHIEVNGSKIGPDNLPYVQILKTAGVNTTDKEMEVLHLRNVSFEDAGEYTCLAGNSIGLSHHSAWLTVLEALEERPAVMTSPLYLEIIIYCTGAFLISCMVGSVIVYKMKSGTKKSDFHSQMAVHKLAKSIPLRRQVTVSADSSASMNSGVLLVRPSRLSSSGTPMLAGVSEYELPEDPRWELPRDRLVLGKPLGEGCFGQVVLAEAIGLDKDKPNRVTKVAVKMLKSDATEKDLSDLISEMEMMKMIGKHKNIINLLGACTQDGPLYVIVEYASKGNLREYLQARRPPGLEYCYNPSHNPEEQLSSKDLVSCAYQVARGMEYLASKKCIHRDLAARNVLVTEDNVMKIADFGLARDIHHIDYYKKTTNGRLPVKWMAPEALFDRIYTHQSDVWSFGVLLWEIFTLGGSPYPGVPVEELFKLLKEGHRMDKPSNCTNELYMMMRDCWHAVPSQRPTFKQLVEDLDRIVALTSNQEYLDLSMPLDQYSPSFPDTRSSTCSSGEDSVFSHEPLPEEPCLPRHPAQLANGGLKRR
protocol: phosphorylation enrichment, bacterial display (enrichment ratio); higher = better substrate or ligand; peptides without Tyr show the background
# if value of phosphorylation enrichment reaches 0.6, tag T; if it stays below, tag F

Please check the record IMAYFYMCDRA [CASD1_Y382] and state if its phosphorylation enrichment is at or above 0.6.
T

Here is the next sequence: SNSAAYSGSVA [PDLIM5_Y382_T381A]
F

// query: ALERPYTSKHS [NANS_Y71]
F

Repeat for the following sequence: DLDTDYGSGFP [RNASEH2A_Y206_YF]
F

Record: NFADPYRQLPF [CTNND2_Y503_Q507P_YF]
T

Next entry: KKLAEYGPQGK [CLCA1_Y147_R152K]
F

How about YQLPYYNTVPS [BMPR1A_Y458_M460T] ?
T

Again, but for RASGIYYVPKG [APBB1IP_Y340]
T

Same lookup for DMDATYRPMFS [JUP_Y701_YF] , please.
F

// next record CTNELYMMMRD [FGFR1_Y730]
T

Next:
Given the entry KMATAYIRRMS [BCO1_Y264] , answer whether its phosphorylation enrichment meets or surpasses 0.6.
F

Next sequence up: ARGMEYLAEQK [MST1R_Y1198_G1195S]
F

Likewise for LHAAAYWNALA [UQCRC2_Y182_R183W] ?
F

Let us now turn to RVSSVYTRSTG [CCR5_Y339_A335V]
T

Would you kindly repeat that for DEYLEYRRIVG [FAM221A_Y20] ?
T

----------
experimental-system: Jak2 (UniProt O60674)
Sequence (O60674 whole entry, looked up): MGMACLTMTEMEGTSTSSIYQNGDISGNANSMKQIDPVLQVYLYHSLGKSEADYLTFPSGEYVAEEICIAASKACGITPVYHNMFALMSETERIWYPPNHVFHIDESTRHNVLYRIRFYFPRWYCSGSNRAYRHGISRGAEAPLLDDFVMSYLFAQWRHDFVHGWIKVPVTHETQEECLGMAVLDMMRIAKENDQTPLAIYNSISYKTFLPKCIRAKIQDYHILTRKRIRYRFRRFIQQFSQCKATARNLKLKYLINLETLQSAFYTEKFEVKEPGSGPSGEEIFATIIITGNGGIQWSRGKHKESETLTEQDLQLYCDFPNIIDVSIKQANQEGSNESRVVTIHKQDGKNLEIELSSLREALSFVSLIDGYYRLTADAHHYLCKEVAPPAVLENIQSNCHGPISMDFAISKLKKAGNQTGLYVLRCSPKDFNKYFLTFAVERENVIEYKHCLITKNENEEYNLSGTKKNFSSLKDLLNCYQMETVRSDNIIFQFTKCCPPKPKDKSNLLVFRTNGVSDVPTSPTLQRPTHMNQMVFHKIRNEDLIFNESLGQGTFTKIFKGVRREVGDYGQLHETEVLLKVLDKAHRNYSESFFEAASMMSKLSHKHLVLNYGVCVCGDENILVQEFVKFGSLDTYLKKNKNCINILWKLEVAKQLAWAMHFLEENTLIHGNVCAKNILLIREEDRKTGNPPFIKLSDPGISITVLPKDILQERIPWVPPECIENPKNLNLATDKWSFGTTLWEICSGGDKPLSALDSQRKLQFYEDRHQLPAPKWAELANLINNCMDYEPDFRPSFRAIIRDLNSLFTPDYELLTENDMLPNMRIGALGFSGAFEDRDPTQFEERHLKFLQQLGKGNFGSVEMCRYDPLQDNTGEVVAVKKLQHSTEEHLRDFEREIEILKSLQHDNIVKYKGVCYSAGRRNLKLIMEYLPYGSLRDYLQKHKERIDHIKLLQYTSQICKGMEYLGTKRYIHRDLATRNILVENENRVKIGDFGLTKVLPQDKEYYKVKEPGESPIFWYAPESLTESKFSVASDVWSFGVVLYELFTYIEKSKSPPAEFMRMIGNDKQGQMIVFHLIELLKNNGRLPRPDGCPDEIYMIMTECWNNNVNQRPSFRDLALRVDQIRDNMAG
protocol: phosphorylation enrichment, bacterial display (enrichment ratio); higher = better substrate or ligand; peptides without Tyr show the background
Class Condition met: phosphorylation enrichment at least 0.8. Class Condition not met: phosphorylation enrichment below 0.8.

Past entries and their recorded results:
Hi, just wondering whether LPPREYVVVPS [CAPN1_Y494_G492R] shows phosphorylation enrichment of 0.8 or higher.
Condition met

Please answer likewise for RKKEEYKMALF [F8_Y1990_YF]
Condition not met

Next:
For this sequence, is measured phosphorylation enrichment 0.8 or higher? EVLKNYSQQKD [GOLGA4_Y1551_N1552S]
Condition not met

Subsequent entry: ECKLRYSRKEG [PTPN11_Y263_L262R]
Condition not met

----------
experimental-system: FGFR3 (UniProt P22607)
Sequence (P22607 whole entry, looked up): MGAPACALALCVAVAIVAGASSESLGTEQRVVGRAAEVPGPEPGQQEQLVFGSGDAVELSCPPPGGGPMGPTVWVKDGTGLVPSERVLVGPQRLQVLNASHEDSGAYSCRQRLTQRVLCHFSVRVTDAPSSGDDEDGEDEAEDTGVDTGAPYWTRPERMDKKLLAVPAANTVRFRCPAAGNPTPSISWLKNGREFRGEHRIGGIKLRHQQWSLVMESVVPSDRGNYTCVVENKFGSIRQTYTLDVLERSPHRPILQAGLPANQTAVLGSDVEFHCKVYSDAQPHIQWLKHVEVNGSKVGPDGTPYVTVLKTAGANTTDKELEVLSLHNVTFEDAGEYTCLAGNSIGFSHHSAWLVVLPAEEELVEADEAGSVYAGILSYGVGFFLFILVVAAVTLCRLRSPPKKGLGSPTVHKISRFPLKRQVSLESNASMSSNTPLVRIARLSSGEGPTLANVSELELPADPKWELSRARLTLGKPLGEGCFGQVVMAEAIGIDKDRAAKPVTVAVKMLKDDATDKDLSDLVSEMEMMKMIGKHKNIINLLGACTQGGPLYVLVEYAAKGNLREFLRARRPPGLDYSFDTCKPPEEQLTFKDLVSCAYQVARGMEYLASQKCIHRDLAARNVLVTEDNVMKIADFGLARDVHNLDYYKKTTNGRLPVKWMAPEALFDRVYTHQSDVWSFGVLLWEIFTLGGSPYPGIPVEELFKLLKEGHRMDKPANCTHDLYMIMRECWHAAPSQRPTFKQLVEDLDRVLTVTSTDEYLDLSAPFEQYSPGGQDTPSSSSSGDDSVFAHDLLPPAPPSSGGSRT
protocol: phosphorylation enrichment, bacterial display (enrichment ratio); higher = better substrate or ligand; peptides without Tyr show the background
endpoint-label: phosphorylation enrichment
Please respond with just the number, no unit label.

Recorded phosphorylation enrichment of EILTQYEAMAS [GFAP_Y242_R239L] , please.
0.608

Continue with GIATGYLVLKE [DNMT3B_Y588]
0.611

Please do the same for HSHTRYERNIE [F2_Y434_R431H] as well.
0.555

ILLAGYLVMVI [SLC28A3_Y113] , same question.
0.783

Further cases:
Consider the sequence IVAREYFSDAD [CAMK2A_Y106_E109D_YF] and give its measured phosphorylation enrichment.
0.583

Can you check LVTCSYLLGNS [LMNA_Y646_R644C] next?
1.72

GYRVYYTPDSR [PTPRF_Y451] ?
0.675

Proceed to QGLRLYRPHLA [BTK_Y617]
0.76

Note, next up: RSRSSYTHSLN [MYCT1_Y116_G119S]
0.514

Repeat for the following sequence: DFPGIYSGYDD [POLR1C_Y33_N32I]
0.696

----------
experimental-system: FGFR1 (UniProt P11362)
protocol: phosphorylation enrichment, bacterial display (enrichment ratio); higher = better substrate or ligand; peptides without Tyr show the background
Item-by-item account of phosphorylation enrichment
The response must contain the number and no unit.

Recorded phosphorylation enrichment, per entry:
Query: phosphorylation enrichment; subject: RPASVYTKRCS [CPT2_Y508]
0.586

Try DRKRQYELLKL [KIF4B_Y684] next.
0.331

// repeat for LTDRGYSFVTT [ACTA1_Y200_E197D] and report
0.772

More entries:
Need phosphorylation enrichment of ESLRSYDVMDV [KCNQ2_Y562_P561S] , thanks.
0.581

Another sequence: ISMAGYSIPEL [EDAR_Y406_T403M]
0.494

Follow-up item: LEAVSYSSRYA [RNLS_Y190]
0.415

Then this sequence: IVEYAYNDKAI [PUM3_Y259]
0.501

Record: KELANYFKLHH [AK7_Y390_YF]
1.15

Can you check KLIETYFSKNY [PLP1_Y50] next?
0.334

// same read-out, input: GGMAEYTRLHN [EHHADH_Y4]
0.382

And then CTTIHKNFMCN [TP53_Y234_Y234K_YF] , what is it?
0.486

Field entry: LIEQAYDNLHE [PRPF8_Y871_P874L]
0.6

Now the same for GRDQPYSGAGD [TYRO3_Y828]
0.559

And for TRTDAYAVSSF ?
0.567

Here is the next sequence: VVTFSYKPAGN [RBL2_Y544_P547A]
0.399

And MVTSGYKAKTI [EFR3A_Y447] ?
0.299

Also need LEGEEYRMSGE [KRT3_Y511] , thanks.
0.574

Entry to check: SPGGDYAAMGA [ERBB3_Y1276_G1271S]
0.705

Now consider SNPAYYVLEGV [INPPL1_Y987_N982S] and answer again.
15.1

What would you report for VRQQVYKKVEE [HADHA_Y283] ?
0.344

Field entry: IPVNGYQPVPA [ROR2_Y824_V819I]
0.36

----------
Test system: c-Src
protocol: phosphorylation enrichment, bacterial display (enrichment ratio); higher = better substrate or ligand; peptides without Tyr show the background
So basically every entry gets a class from its phosphorylation enrichment, ranges being lowest (below 0.5), middle (0.5 to below 0.7), highest (0.7 or more)

Input GLAELYEFQKK [CKAP5_Y1854_K1857Q_YF] ; output its category
highest

Continuing:
Which phosphorylation enrichment category applies to LAAAGYDVEKN [H1-3_Y72] here?
lowest

Likewise for QMVGMYASFYM [AVPR2_Y124_S127F] ?
highest

Please give the result for HCHEGYVLHGA [SVEP1_Y2921_I2922V] too.
middle

Query ADRSCYDLSCH [GARS1_Y467] next
lowest

Lookup TTPGPYRSIYF [MPG_Y71]
highest

----------
experimental-system: Grb2 SH2 (UniProt P62993)
Sequence (P62993 whole entry, looked up): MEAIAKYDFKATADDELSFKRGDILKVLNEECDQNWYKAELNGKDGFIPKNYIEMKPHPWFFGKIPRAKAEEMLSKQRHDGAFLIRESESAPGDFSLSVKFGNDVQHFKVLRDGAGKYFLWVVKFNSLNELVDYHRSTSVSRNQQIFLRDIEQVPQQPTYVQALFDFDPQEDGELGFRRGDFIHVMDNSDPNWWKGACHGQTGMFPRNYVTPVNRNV
protocol: SH2 binding enrichment of the phosphorylated peptide, bacterial display (enrichment ratio); higher = better substrate or ligand; peptides without Tyr show the background
endpoint-label: SH2 binding enrichment

Would you please look over these solved cases?
Consider the sequence DNLSNYVFQGQ [GRIN2A_Y978_N976S] and give its measured SH2 binding enrichment.
0.904

Then FRAPGYREVVI [TNS2_Y673_YF] ?
0.942

Another: ATARPYSPFII [LRP5_Y1528_R1529S_YF]
1.04

Others:
Find the recorded SH2 binding enrichment belonging to RSRSSYTHSLN [MYCT1_Y116_G119S] and report it.
0.786

Proceed to RLSVDCGKKSK [TUBA4A_Y161_Y161C]
0.846

----------
experimental-system: Hck (UniProt P08631)
Sequence (P08631 whole entry, looked up): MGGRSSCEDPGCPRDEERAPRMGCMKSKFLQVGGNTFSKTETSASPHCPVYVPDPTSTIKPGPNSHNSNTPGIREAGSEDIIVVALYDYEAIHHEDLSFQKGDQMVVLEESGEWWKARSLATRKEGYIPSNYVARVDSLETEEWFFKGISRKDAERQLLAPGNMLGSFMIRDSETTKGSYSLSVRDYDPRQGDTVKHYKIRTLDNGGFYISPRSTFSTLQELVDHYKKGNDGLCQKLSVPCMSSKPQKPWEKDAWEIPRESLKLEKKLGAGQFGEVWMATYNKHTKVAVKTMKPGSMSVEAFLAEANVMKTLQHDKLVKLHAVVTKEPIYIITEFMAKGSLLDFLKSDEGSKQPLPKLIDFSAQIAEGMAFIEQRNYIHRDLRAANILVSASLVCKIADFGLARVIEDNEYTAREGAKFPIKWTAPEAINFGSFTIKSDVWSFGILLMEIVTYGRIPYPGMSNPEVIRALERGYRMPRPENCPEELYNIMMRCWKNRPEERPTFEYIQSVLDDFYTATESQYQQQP
protocol: phosphorylation enrichment, bacterial display (enrichment ratio); higher = better substrate or ligand; peptides without Tyr show the background
endpoint-label: phosphorylation enrichment
Could you respond with only the numeric value?

# example entries with known answers
Entry ATARPYSPFII [LRP5_Y1528_R1529S_YF] : reported phosphorylation enrichment = ?
0.594

How about this sequence: KELANYFKLHH [AK7_Y390_YF]
0.486

Try this sequence next: PNEAVYTKMMT [G6PD_Y401]
1.96

Do the same for ENEGTYVCIAT [ADAMTSL3_Y1365] please
1.08

And for FFWDGYMPRQF [GSS_Y270_R267W_YF] ?
0.471

***
Would you kindly share the measured phosphorylation enrichment for RIDPDYVGRVR [IGSF9_Y81] ?
0.403

Another sequence to look at: CQAHGYSCQLI [STK11_Y156_F157S]
0.5

How about EPDSLYGCGGG [ATM_Y2019] ?
2.94

Each recorded value in this set is attributed to the supplement of paper PMC10065799.
